Hey, just so you know, these numbers are from patent US6608086B2.

Molecular target: α2C receptor (Homo sapiens, UniProt P18825)
Construct: host or cells: LM(tk-) cells, line L-α2C
Sequence (P18825 whole entry): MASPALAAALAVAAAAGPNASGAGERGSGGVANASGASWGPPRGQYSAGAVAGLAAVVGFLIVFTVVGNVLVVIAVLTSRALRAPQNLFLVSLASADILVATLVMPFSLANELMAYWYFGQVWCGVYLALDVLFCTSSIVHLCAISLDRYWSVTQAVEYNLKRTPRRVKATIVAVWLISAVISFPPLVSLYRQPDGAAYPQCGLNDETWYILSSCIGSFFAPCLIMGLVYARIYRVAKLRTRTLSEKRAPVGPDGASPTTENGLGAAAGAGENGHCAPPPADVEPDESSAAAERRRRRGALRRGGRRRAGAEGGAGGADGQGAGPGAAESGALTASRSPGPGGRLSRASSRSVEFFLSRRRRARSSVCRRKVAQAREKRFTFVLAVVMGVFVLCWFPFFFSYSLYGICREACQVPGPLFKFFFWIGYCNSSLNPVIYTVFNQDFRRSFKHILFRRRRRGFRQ
Assay: Competition binding, [3H]rauwolscine, human α2C receptor
Conditions: PKi alpha-2 2c, [3H]rauwolscine, human receptor, LM(tk-) cell lysates; mean
Description: The protocols for these experiments are given below. α2 Human Adrenergic Receptors: To determine the potency of […], antagonists at the α2 receptors, LM(tk−) cell lines stably transfected with the genes encoding the α2A, α2B, and α2C receptors were used. The cell line expressing the α2A receptor is designated L-α2A, and was deposited on Nov. […] Equilibrium competition binding assay were performed using [3H]rauwolscine (0.5 nM), and nonspecific binding was determined by incubation with 10 μM phentolamine. […]
assay.endpoint: pKi
Value format note: pKi is -log10 of concentration (mol/L); just state the number.

IN: Give measured pKi for CNC(=O)C1=C(C)NC(C)=C(C(=O)NCCCN2CCC(c3ccccc3)(c3ccccc3)CC2)C1c1ccc2c(c1)OCCO2 (stereo not shown) (α2C receptor (Homo sapiens, UniProt P18825)).
OUT: 5.91

* * *

Target: α2B receptor (Homo sapiens, UniProt P18089)
Construct: host or cells: LM(tk-) cells, line L-NGC-α2B
Sequence (P18089 whole entry): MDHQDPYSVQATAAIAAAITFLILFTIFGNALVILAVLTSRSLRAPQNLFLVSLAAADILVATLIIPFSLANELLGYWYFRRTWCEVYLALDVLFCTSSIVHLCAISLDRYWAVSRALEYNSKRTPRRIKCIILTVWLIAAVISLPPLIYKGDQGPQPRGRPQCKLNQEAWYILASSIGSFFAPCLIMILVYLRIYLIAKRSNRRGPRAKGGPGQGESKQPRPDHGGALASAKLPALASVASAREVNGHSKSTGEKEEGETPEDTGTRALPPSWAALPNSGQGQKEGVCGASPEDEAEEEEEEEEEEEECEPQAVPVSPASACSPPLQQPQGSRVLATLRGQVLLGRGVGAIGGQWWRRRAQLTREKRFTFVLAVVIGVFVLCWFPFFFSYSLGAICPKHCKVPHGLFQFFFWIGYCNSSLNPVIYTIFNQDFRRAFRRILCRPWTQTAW
Experiment: Competition binding, [3H]rauwolscine, human α2B receptor
Conditions: PKi alpha-2 2b
Could you mark each record Yes if its Ki falls strictly under 3 µM, and No if it equals or exceeds it?

Example results:
COC(=O)C1(c2ccccc2)CCN(CCCNC(=O)C2=C(COCCCN)NC(C)=C(C(C)=O)C2c2ccc([N+](=O)[O-])cc2)CC1 (stereo not shown) [Example 241]; Yes
CCNC(=O)C1=C(CC)NC(CC)=C(C(=O)NCCCN2CCC(C(=O)OC)(c3ccccc3)CC2)C1c1ccc([N+](=O)[O-])cc1 (stereo not shown) [Example 180]; No
CCNC(=O)C1=C(CC)NC(CC)=C(C(=O)NCCCN2CCC(C(=O)OCC)(c3ccccc3)CC2)C1c1ccc([N+](=O)[O-])cc1 (stereo not shown) [Example 182]; Yes
CCNC(=O)C1=C(CC)NC(COCCN)=C(C(=O)NCCCN2CCC(C(=O)OC)(c3ccccc3)CC2)C1c1ccc([N+](=O)[O-])cc1 (stereo not shown) [Example 233]; No
CCOC(=O)C1(c2ccccc2)CCN(CCCNC(=O)C2=C(COCCN)NC(CC)=C(C(=O)OC)C2c2ccc([N+](=O)[O-])cc2)CC1 (stereo not shown) [Example 197]; Yes
CC1=C(C(N)=O)C(c2ccc([N+](=O)[O-])cc2)C(C(=O)NCCCN2CCC(C(=O)O)(c3ccccc3)CC2)=C(C)N1 (stereo not shown) [Example 210]; No

IN: Is 3 µM strictly greater than the molecule's reported Ki? molecule: CCOC(=O)C1(c2ccccc2)CCN(CCCNC(=O)C2=C(COC)NC(CC)=C(C(=O)O)C2c2ccc([N+](=O)[O-])cc2)CC1 (stereo not shown) [Example 240]
OUT: No

IN: Is 3 µM strictly greater than the molecule's reported Ki? molecule: COC(=O)C1(c2ccccc2)CCN(CCCNC(=O)C2=C(CCCCN)NC(C)=C(C(N)=O)C2c2ccc([N+](=O)[O-])cc2)CC1 (stereo not shown) [Example 177]
OUT: Yes

* * *

Listing: Ki of selected compounds
Molecular target: α1A Human Adrenergic Receptor (Homo sapiens)
Construct: The entire coding region of α1A (1719 bp); expressed in transfected cells
Sequence (P25100 1-572): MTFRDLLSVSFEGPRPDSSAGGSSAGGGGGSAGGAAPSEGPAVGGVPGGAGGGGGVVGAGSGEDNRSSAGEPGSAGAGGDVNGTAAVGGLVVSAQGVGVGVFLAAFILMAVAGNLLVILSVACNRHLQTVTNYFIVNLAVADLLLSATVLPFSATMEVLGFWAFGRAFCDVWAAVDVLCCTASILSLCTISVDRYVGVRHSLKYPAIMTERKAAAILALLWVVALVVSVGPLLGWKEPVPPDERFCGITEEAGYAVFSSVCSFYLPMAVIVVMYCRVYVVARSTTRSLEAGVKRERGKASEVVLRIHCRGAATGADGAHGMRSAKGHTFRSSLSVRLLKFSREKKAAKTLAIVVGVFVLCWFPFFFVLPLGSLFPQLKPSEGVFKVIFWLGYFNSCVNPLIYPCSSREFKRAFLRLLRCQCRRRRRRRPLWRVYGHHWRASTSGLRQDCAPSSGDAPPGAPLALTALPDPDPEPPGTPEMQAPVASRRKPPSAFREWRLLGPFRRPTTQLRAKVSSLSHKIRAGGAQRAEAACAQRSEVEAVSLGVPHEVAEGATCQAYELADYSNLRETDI
Experiment: Radioligand binding, [3H]prazosin, cloned human α1A adrenergic receptor
Conditions: pKi alpha-1 1a, [3H]prazosin, cloned human receptor in LM(tk-) cell membranes; SEM and n in lines below
Structures can show the parent of a compound that is named as a salt.
Express the result in nM but write the number alone.

COC(=O)C1=C(C)NC(C)=C(C(=O)NCCCN2CCC(c3ccccc3)(c3ccccc3)CC2)C1c1ccc([N+](=O)[O-])c(OC)c1 (stereo not drawn); 263
COC(=O)C1=C(C)NC(c2ccoc2)=C(C(=O)NCCCN2CCC(c3ccccc3)(c3ccccc3)CC2)C1c1ccc([N+](=O)[O-])cc1 (stereo not drawn) [Example 43, hydrochloride salt]; 316

IN: For the compound CC1=C(C(N)=O)C(c2cccc([N+](=O)[O-])c2)C(C(=O)NCCCN2CCC(c3ccccc3)(c3ccccc3)CC2)=C(C)N1 (stereo not drawn) , report Ki.
OUT: 851
